assayComment: Nuclear factor erythroid 2-related factor 2/antioxidant responsive element (Nrf2/ARE) small molecule agonists: luciferase reporter gene qHTS assay in human keratinocytes (AID 1919969); also: nearly all actives have a fitted effect of over 35% in size
conditionsUsed: KeratinoSens HaCaT ARE-luciferase, luminescence, 24 h; series mostly up to 92.4 µM
Records with an inconclusive call do not appear. Calls of active or inactive are those of the source. Calls follow the shape of the full dose curve.
Pick from T = active, F = inactive when you respond.

[
  {
    "molecule": "C=CCCCCCCCCC(=O)OCC",
    "classLabel": "F"
  },
  {
    "molecule": "ONc1ccccc1",
    "classLabel": "T"
  },
  {
    "molecule": "C=C(C)c1cccc(C(C)(C)N=C=O)c1",
    "classLabel": "F"
  },
  {
    "molecule": "O=[N+]([O-])c1ccc2[nH]ncc2c1",
    "classLabel": "F"
  },
  {
    "molecule": "CCOC(=O)Cn1cccc1-c1nc(-c2ccc(OC)cc2)c(-c2ccc(OC)cc2)s1",
    "classLabel": "F"
  }
]

// query In this assay, the call recorded for `O=c1c(O)c(O)c1=O` was what?
// result F

// query Same read-out for CC12CCC(CC1=O)C2(C)C (stereo not given) ?
// result F

// query Same read-out for `c1cc[nH]c1` ?
// result F

// query Same read-out for C=CC(=O)OCC(O)COc1ccccc1 (stereo not given) ?
// result T

// query Same read-out for `CCOC(=O)c1ccccc1` ?
// result F

// query Same read-out for C=CC1CO1 (stereo not given) ?
// result F

// query Same read-out for CC(COC(C)(C)C)OCCCO (stereo not given) ?
// result F

// query Same read-out for `CCO` ?
// result F

###

assayComment: Nuclear factor erythroid 2-related factor 2/antioxidant responsive element (Nrf2/ARE) small molecule agonists: qHTS cell viability counter screen in human keratinocytes (AID 1919968); also: nearly all actives have a fitted effect of over 55% in size
conditionsUsed: KeratinoSens HaCaT ARE cells viability, CellTiter-Fluor, 24 h; series mostly up to 92.4 µM
Records with an inconclusive call do not appear. Activity calls are given as the source filed them. Calls come from the whole dose curve; as a rule, active = well fitted cell-killing curve with a large enough effect in the repeat runs; inconclusive = weak or mixed curves, or effect the other way; inactive = flat fitted curve, though single readings scatter.
Pick from active, inactive when you respond.

Solved cases below.
[
  {
    "compound": "O=CNNC=O",
    "classLabel": "inactive"
  },
  {
    "compound": "NCCS",
    "classLabel": "inactive"
  },
  {
    "compound": "CC1=C(C(=O)OC(C)C)C(c2cccc([N+](=O)[O-])c2)C(C(=O)OC2CN(C(c3ccccc3)c3ccccc3)C2)=C(N)N1 (stereo not drawn)",
    "classLabel": "active"
  },
  {
    "compound": "C=CCSSCCC",
    "classLabel": "inactive"
  }
]

// query In this assay, the call recorded for `CC1(C)OC(=O)Nc2ccc(Br)cc21` was what?
// result inactive

// query Same read-out for `NS(=O)(=O)c1cc2c(cc1C(F)(F)F)NCNS2(=O)=O` ?
// result inactive

// query Same read-out for `CC(C)c1ccc(C#N)cc1` ?
// result inactive

// query Same read-out for `CCCCOCCOC(=O)COc1ccc(Cl)cc1Cl` ?
// result inactive

###

assayComment: Nuclear factor erythroid 2-related factor 2/antioxidant responsive element (Nrf2/ARE) small molecule agonists: qHTS cell viability counter screen in human keratinocytes (AID 1919968); also: nearly all actives have a fitted effect of over 55% in size
conditionsUsed: KeratinoSens HaCaT ARE cells viability, CellTiter-Fluor, 24 h; series mostly up to 92.4 µM
Inconclusive results are not listed. The source made the active and inactive calls. Calls follow the shape of the dose curve; as a rule, active = well fitted cell-killing curve with a large enough effect in the repeat runs; inconclusive = weak or mixed curves, or effect the other way; inactive = flat fitted curve, though single readings scatter.
Pick from active, inactive when you respond.

Solved cases below.
[
  {
    "molecule": "O=c1c(O)c(O)c1=O",
    "classLabel": "inactive"
  },
  {
    "molecule": "CC(C)=CC1CC(C)CCO1 (stereo not drawn)",
    "classLabel": "inactive"
  },
  {
    "molecule": "O=C(O)c1cn(C2CC2)c2cc(Cl)c(F)cc2c1=O",
    "classLabel": "inactive"
  },
  {
    "molecule": "CCCCCCCCCCCC(=O)N(CC)CC",
    "classLabel": "inactive"
  }
]

// query In this assay, the call recorded for `CC(C)(C)NC[C@H](O)COc1cccc2c1CCCC2=O` was what?
// result inactive

// query Same read-out for `C=CC(=O)OCCOCC(CC)(COCCOC(=O)C=C)COCCOC(=O)C=C` ?
// result active

// query Same read-out for `COCCOCCOCCOC` ?
// result inactive

// query Same read-out for `Clc1nnc(Cl)c2ccccc12` ?
// result inactive

// query Same read-out for `OCC(F)(F)F` ?
// result inactive

// query Same read-out for `Cc1cc(CCCOc2c(C)cc(-c3noc(C(F)(F)F)n3)cc2C)on1` ?
// result inactive

// query Same read-out for `CCCCCCCCCCCC[N+](C)(C)CCCCCCCCCCCC` ?
// result active

// query Same read-out for `COc1ccc(C(=O)N2CCN(CC(=O)N3CCOCC3)CC2)cc1` ?
// result inactive

// query Same read-out for `CC(=O)O[C@H]1CC[C@@]2(C)C(=CC[C@@H]3[C@@H]2CC[C@]2(C)C(C(C)=O)=CC[C@@H]32)C1` ?
// result inactive

// query Same read-out for `CN(Cc1cc(Br)cc(Br)c1N)C1CCCCC1` ?
// result active

// query Same read-out for `CCN1CCC[C@H]1CNC(=O)c1cc(S(N)(=O)=O)ccc1OC` ?
// result inactive

// query Same read-out for `Cc1ccc(C(=O)c2ccccc2)cc1` ?
// result inactive

// query Same read-out for `CC(=O)N(CC(=O)N(C)C)c1ccccc1` ?
// result inactive

// query Same read-out for `CN(C(=O)C(Cl)Cl)c1ccc(OC(=O)c2ccco2)cc1` ?
// result inactive

// query Same read-out for C=CC(=O)OCC1CCCO1 (stereo not drawn) ?
// result inactive

Where do these numbers come from? They come from PubChem BioAssay (Tox21).
